attribute measured: melting point (°C)
Record the value in °C, omitting the unit from your answer.

Illustrative cases are given below, each with its answer.
sample smiles | reported value
COc1ccc(-c2nnc3c4ccccc4c(Nc4cccc(C(N)=O)c4)nn23)cc1 | 296
COc1ccc(-c2nnc3c4ccccc4c(Nc4ccc(N)cc4)nn23)cc1 | 295
CNC(=O)c1cccc(Nc2nn3c(-c4ccc(OC)cc4)nnc3c3ccccc23)c1 | 316
COc1ccc(-c2nnc3c4ccccc4c(Nc4cccc(NC(C)=O)c4)nn23)cc1 | 295

// moving on: another record for melting point
If you can, please state the reported melting point value of COc1ccc(-c2nnc3c4ccccc4c(Nc4ccc(NC(=O)c5ccccc5)cc4)nn23)cc1 . 323
